Assay: Solubility test of ivacaftor in solvents and acetone/water mixtures at 25° C.
Format: physicochemical
Conditions: methyl ethyl ketone, organic solvent or mixture, Methyl ethyl ketone, 25° C., read-out: Solubility
PROPERTY NAME: solubility (mg/mL)
Answer with a number only, understood to be in mg/mL.

# solubility (compound: CC(C)(C)c1cc(C(C)(C)C)c(NC(=O)c2c[nH]c3ccccc3c2=O)cc1O [ivacaftor] ) is 44.7

====

Assay: Solubility test of ivacaftor in solvents and acetone/water mixtures at 25° C.
Assay type: physicochemical
Settings: acetone/water, organic solvent or mixture, 5% water in acetone, 25° C., read-out: Solubility in acetone/water
PROPERTY NAME: solubility (mg/mL)
Answer with a number only, understood to be in mg/mL.

# solubility (compound: `CC(C)(C)c1cc(C(C)(C)C)c(NC(=O)c2c[nH]c3ccccc3c2=O)cc1O` ) is 41.4
